Provenance of the data: patent US20240116985A1

Target: full-length beta-Catenin (Uniprot ID P35222) (Homo sapiens (Human)) (UniProt P35222)
Sequence (P35222 whole entry): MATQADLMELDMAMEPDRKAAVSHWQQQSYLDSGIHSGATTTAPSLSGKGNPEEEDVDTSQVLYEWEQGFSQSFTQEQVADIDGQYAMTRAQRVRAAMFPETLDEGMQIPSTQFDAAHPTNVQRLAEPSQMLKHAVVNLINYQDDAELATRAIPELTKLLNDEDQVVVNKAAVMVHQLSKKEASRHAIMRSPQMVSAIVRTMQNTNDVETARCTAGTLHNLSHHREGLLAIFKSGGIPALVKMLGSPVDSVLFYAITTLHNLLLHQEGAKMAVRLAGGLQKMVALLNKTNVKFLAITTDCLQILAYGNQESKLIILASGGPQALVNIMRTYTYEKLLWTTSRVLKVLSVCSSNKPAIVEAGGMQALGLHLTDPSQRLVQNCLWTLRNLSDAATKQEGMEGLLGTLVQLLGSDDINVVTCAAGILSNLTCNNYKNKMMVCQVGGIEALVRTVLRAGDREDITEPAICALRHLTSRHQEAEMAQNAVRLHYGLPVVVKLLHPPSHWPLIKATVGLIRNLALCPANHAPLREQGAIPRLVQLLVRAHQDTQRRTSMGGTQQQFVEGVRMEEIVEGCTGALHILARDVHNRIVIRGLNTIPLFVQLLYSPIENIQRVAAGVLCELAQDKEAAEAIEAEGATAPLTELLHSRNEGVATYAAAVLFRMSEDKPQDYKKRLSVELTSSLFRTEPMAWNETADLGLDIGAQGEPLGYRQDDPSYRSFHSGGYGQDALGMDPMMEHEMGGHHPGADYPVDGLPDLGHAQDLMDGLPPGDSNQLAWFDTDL
Experiment: fluorescence polarization competition, full-length beta-catenin, competitor 5FAM-TCF4 10-53
Starred links: 1 amine or outer side, 2 acyl side, 3 side chain; linkers in the order of their positions; H or OH if unused. Positions of bridges follow the written chain, without caps; N, C: chain ends. Non-standard residues stand in square brackets, D forms with d. Primed or numbered codes have the meaning given here. PyrS2″ = (S)-3-amino-1-((pent-4-en-1-yloxy)carbonyl)pyrrolidine-3-carboxylic acid (stapling residue), C=CCCCOC(=O)N1CC[C@@](N[*:1])(C(=O)[*:2])C1; B5(24) = 2-amino-2-(pent-4-en-1-yl)hept-6-enoic acid, 2,2-bis(4-pentenyl)glycine (stitching residue), C=CCCCC(CCCC=C)(N[*:1])C(=O)[*:2]; B5(3) = 2,2-bis(4-pentenyl)glycine (stitching residue), C=CCCCC(CCCC=C)(N[*:1])C(=O)[*:2]; Phe(2-Cl) = N[C@@H](Cc1ccccc1Cl)C(=O)O; Bta = N[C@@H](Cc1csc2ccccc12)C(=O)O; αAllylPro = C=CC[C@@]1(C(=O)O)CCCN1; Cha = N[C@@H](CC1CCCCC1)C(=O)O
Recorded Endpoint: IC50 (nM)
Give the value, in units of nM, as a plain number.

Input: Need IC50 of Ac-[αAllylPro]D[Cha][B5(3)]DDAAFS[PyrS2″]F[Bta]Q-NH2 (staple 1-4, 4-11 (inferred); not fully specified (residue 9); printed as Ac-PL3-Asp-Cha-B5-Asp-Asp-Ala-Ala-4F3MeF-Ser-PyrS2-Phe-BztA-Gln-NH2) [I-1126] , thanks.
Output: 32

Input: Need IC50 of Ac-[αAllylPro]D[Cha][B5(24)]DDAAFS[PyrS2″][Phe(2-Cl)][Bta][dT]-NH2 (staple 1-4, 4-11) [I-1136] , thanks.
Output: 16
